- SUBJECT_OF_TEST: UniProt:Q96T53
- ASSAY_COMMENT: Determination of hGOAT activity in HEK293 cells after incubation with test compound (acyl-ghrelin ELISA)
- EXPERIMENTAL_PARAMETERS: HEK293 cells stably transfected with preproghrelin and human GOAT; octanoate-BSA 100 μM; 5 hours incubation; acyl-ghrelin in medium by ELISA; 8 compound concentrations
Counter-ions that a name gives are not always drawn.
So I've got a bunch of compounds here, and I need their IC50 values.
One number for each entry, in nM.

>  <COMPOUND>
Cc1nc2nonc2c(N)c1Cc1cccnc1OC(F)F [Compound 4.47]

>  <READOUT_UNIT>
nM

>  <IC50>
1.8

$$$$
>  <COMPOUND>
Cc1nc2nonc2c(N)c1Cc1ccc(C#N)c(OCC(C)(C)O)c1 [Compound 21.6]

>  <READOUT_UNIT>
nM

>  <IC50>
0.15

$$$$
>  <COMPOUND>
Cc1nc2nonc2c(N)c1Cc1ccnc(Cl)c1 [Compound 4.55]

>  <READOUT_UNIT>
nM

>  <IC50>
6.27

$$$$
>  <COMPOUND>
Cc1nc2nonc2c(N)c1Cc1ccc(SC(F)(F)F)cc1 [Compound 4.32]

>  <READOUT_UNIT>
nM

>  <IC50>
0.064

$$$$
>  <COMPOUND>
Cc1nc2nonc2c(N)c1Cc1ccc(-c2ccco2)nc1 [Compound 12.9]

>  <READOUT_UNIT>
nM

>  <IC50>
1.49

$$$$

Provide each entry's IC50 from the list below.
1. Cc1nc2nonc2c(N)c1Cc1cccc(OC(F)(F)F)c1 [Compound 4.41]
2. Nc1c(Cc2ccc(C(F)(F)F)cc2)c(Br)nc2nonc12 [Compound 24.1]
3. Cc1nc2nonc2c(N)c1Cc1ccc(OC(F)(F)F)c(N=S(C)(C)=O)c1 [Compound 13.2]
4. Cc1nc2nonc2c(N)c1Cc1ccc(F)c(F)c1 [Compound 4.0]
5. Cc1nc2nonc2c(N)c1Cc1ccc(OCC2CC2(F)F)nc1 (stereo in doubt) [Compound 21.13]
6. Cc1nc2nonc2c(N)c1Cc1cc(F)c(F)c(F)c1 [Compound 4.52]

Response:
[0.428, 0.475, 0.033, 0.494, 0.718, 1.59]

Working through the 4 compounds below one at a time, give IC50 for each.
1. Cc1nc2nonc2c(N)c1Cc1ccc(Cl)c(C(N)=O)c1 [Compound 15.3]
2. Cc1nc2nonc2c(N)c1Cc1ccc(C(C)(C)C(=O)O)nc1 [Compound 19.4]
3. Cc1nc2nonc2c(N)c1Cc1ccc(C(=O)Nc2ncnn2C)cc1 [Compound 14.17]
4. Cc1nc2nonc2c(N)c1Cc1cccc(F)c1 [Compound 4.2]

Response:
1. 1.58
2. 0.534
3. 4.5
4. 2.26

List reported IC50 for each of these compounds:
1. Cc1nc2nonc2c(N)c1Cc1cccc2c1cnn2C [Compound 2.13]
2. COc1ccc(Cc2c(C)nc3nonc3c2N)cc1 [Compound 4.53]
3. Cc1nc2nonc2c(N)c1Cc1ccnc(C(F)(F)F)c1 [Compound 4.40]
4. Cc1nc2nonc2c(N)c1Cc1ccc(F)nc1 [Compound 4.4]
5. Nc1c(Cc2ccc(C(F)(F)F)cc2)c(Cl)nc2nonc12 [Compound 23.2]
6. Cc1nc2nonc2c(N)c1Cc1ccc(OC(F)F)nc1 [Compound 4.16]
7. CN(C)c1nc2nonc2c(N)c1Cc1ccc(C(F)(F)F)cc1 [Compound 24.3, Trifluoroacetic Acid Salt]
8. Nc1c(Cc2ccc(OC(F)(F)F)cc2)c(Cl)nc2nonc12 [Compound 23.3]

Response:
1. 0.66
2. 0.147
3. 2.21
4. 4.06
5. 0.232
6. 0.642
7. 6.12
8. 0.298

Count: 7. Required value per item: IC50.
1. Cc1nc2nonc2c(N)c1Cc1ccn2ncnc2c1 [Compound 4.21]
2. Cc1nc2nonc2c(N)c1Cc1cccc(C(F)(F)F)c1 [Compound 4.38]
3. Nc1c(Cc2ccc(C(F)(F)F)cc2)c(C(F)(F)F)nc2nonc12 [Compound 9.1]
4. Cc1nc2nonc2c(N)c1Cc1ccc(C(F)F)nc1 [Compound 4.30]
5. Cc1nc2nonc2c(N)c1Cc1ccc(C#N)c(OC(F)F)c1 [Compound 4.35]
6. Cc1nc2nonc2c(N)c1Cc1ccc(OC(F)(F)F)nc1 [Compound 4.58]
7. Cc1nc2nonc2c(N)c1Cc1cnc(OC(F)F)c(C#N)c1 [Compound 4.49]

Response:
3.41
0.268
9.47
1.39
0.111
0.752
35.7

---

- SUBJECT_OF_TEST: hGOAT (Homo sapiens)
- ASSAY_COMMENT: Determination of hGOAT activity in HEK293 cells after incubation with test compound (acyl-ghrelin ELISA)
- EXPERIMENTAL_PARAMETERS: HEK293 cells stably transfected with preproghrelin and human GOAT; octanoate-BSA 100 μM; 5 hours incubation; acyl-ghrelin in medium by ELISA; 8 compound concentrations
MEASURED_PROPERTY: pIC50
Answers are plain numbers, as −log10 of the molar value.

Consider the following illustrative entries.
>  <COMPOUND>
Cc1nc2nonc2c(N)c1Cc1ccc2nn(C)cc2c1

>  <pIC50>
8.85

$$$$
>  <COMPOUND>
Cc1nc2nonc2c(N)c1Cc1ccc(C(=O)NCC2CN(C)CCO2)cc1 (stereo not shown)

>  <pIC50>
8.53

$$$$
>  <COMPOUND>
COc1cc(C#N)ccc1Cc1c(C)nc2nonc2c1N

>  <pIC50>
9.88

$$$$
>  <COMPOUND>
Cc1nc2nonc2c(N)c1Cc1ccc(OC(F)(F)F)c(-c2cc[nH]n2)c1

>  <pIC50>
10.37

$$$$
>  <COMPOUND>
COc1cc(C(F)(F)F)ccc1Cc1c(C)nc2nonc2c1N

>  <pIC50>
10.18

$$$$
>  <COMPOUND>
Cc1nc2nonc2c(N)c1Cc1ccc(C(=O)NCc2cnn(C)c2)cc1

>  <pIC50>
8.38

$$$$

# batch: return pIC50 for each of the 6 compounds below
1. Nc1c(Cc2ccc(OC(F)(F)F)cc2)c(CF)nc2nonc12
2. Cc1nc2nonc2c(N)c1Cc1cccc(OC(F)F)c1
3. Cc1nc2nonc2c(N)c1Cc1ccc(C2(C#N)CC(F)(F)C2)nc1
4. Cc1nc2nonc2c(N)c1Cc1ccc(C#N)c(OCC2CC2(F)F)c1 (stereo not shown)
5. Cc1nc2nonc2c(N)c1Cc1cccc(-c2ccn[nH]2)c1
6. Cc1nc2nonc2c(N)c1Cc1cccn2c(C)nnc12

Response:
1. 10.17
2. 9.31
3. 8.82
4. 9.70
5. 10.10
6. 8.40

Consider the following items and state reported pIC50 for each.
1. Cc1nc2nonc2c(N)c1Cc1ccc(F)cc1
2. Cc1nc2nonc2c(N)c1Cc1ccc(Cl)c(Cl)c1
3. Cc1nc2nonc2c(N)c1Cc1ccc(Cl)nc1C(F)(F)F
4. Cc1nc2nonc2c(N)c1Cc1ccc(C(=O)NCC2(C)COC2)cc1
5. Cc1nc2nonc2c(N)c1Cc1ccnc(OC(F)(F)F)c1
6. Cc1nc2nonc2c(N)c1Cc1cccc(N=S(C)(C)=O)c1
7. Cc1nc2nonc2c(N)c1Cc1cc(I)ncc1C(F)(F)F

Response:
1: 9.12; 2: 9.61; 3: 8.13; 4: 8.30; 5: 9.28; 6: 8.81; 7: 9.27

---

- SUBJECT_OF_TEST: hGOAT (Homo sapiens, UniProt Q96T53)
- Sequence (Q96T53 1-435): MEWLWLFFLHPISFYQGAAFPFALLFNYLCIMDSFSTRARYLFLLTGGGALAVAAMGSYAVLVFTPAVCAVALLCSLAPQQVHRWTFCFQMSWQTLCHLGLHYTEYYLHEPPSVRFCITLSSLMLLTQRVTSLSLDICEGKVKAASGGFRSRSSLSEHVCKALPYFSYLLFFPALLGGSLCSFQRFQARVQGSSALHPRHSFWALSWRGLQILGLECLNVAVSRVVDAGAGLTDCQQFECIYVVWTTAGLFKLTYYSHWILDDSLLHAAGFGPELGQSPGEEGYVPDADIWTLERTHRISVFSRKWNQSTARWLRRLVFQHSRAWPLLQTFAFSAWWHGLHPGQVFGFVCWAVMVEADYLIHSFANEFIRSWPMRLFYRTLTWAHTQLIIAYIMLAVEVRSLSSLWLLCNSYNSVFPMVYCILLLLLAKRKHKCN
- ASSAY_COMMENT: Determination of hGOAT activity in HEK293 cells after incubation with test compound (acyl-ghrelin ELISA)
- EXPERIMENTAL_PARAMETERS: HEK293 cells stably transfected with preproghrelin and human GOAT; octanoate-BSA 100 μM; 5 hours incubation; acyl-ghrelin in medium by ELISA; 8 compound concentrations
Please assign not met whenever IC50 is at or above 0.7 nM, and met whenever it is below.

>  <COMPOUND>
Cc1nc2nonc2c(N)c1Cc1ccc(OC(F)(F)F)c(C#N)c1

>  <CLASSIFICATION>
met

$$$$
>  <COMPOUND>
Cc1nc2nonc2c(N)c1Cc1ccc(C(N)=O)cc1

>  <CLASSIFICATION>
not met

$$$$
>  <COMPOUND>
Cc1nc2nonc2c(N)c1Cc1ccc(Cl)n2cnnc12

>  <CLASSIFICATION>
met

$$$$
>  <COMPOUND>
Cc1nc2nonc2c(N)c1Cc1ccc(-c2cscc2C#N)nc1

>  <CLASSIFICATION>
not met

$$$$
>  <COMPOUND>
Cc1nc2nonc2c(N)c1Cc1ccc(OC(F)(F)F)cc1F

>  <CLASSIFICATION>
met

$$$$
>  <COMPOUND>
CNC(=O)c1ccc(Cc2c(C)nc3nonc3c2N)cc1

>  <CLASSIFICATION>
not met

$$$$
>  <COMPOUND>
Cc1nc2nonc2c(N)c1Cc1ccc(C#N)c(OCC(F)F)c1

>  <CLASSIFICATION>
met

$$$$
>  <COMPOUND>
Cc1nc2nonc2c(N)c1Cc1cccc(OCF)c1

>  <CLASSIFICATION>
not met

$$$$
>  <COMPOUND>
Cc1ncc(-c2ccc(Cc3c(C)nc4nonc4c3N)cn2)o1

>  <CLASSIFICATION>
not met

$$$$
>  <COMPOUND>
Cc1nc2nonc2c(N)c1Cc1ccc(Cl)nc1

>  <CLASSIFICATION>
not met

$$$$

Query: Determine if Cc1nc2nonc2c(N)c1Cc1ccc(C#N)c(C#N)c1 shows IC50 strictly lower than 0.7 nM.
Response: not met

Query: I wonder whether Cc1nc2nonc2c(N)c1Cc1ccc(OC(F)F)cc1 has IC50 below 0.7 nM. Can you tell?
Response: met

Query: State whether 0.7 nM exceeds IC50 recorded for Cc1nc2nonc2c(N)c1Cc1ccc(C(F)(F)F)nc1 .
Response: not met
